target: Melanocortin receptor 5 (Homo sapiens, UniProt P33032); assay type: cell membranes, HEK293, Membrane; details: read-out: Ki; note: in other assays of this panel Not Active means under 50% inhibition at 10 µM
Sequence (P33032 whole entry): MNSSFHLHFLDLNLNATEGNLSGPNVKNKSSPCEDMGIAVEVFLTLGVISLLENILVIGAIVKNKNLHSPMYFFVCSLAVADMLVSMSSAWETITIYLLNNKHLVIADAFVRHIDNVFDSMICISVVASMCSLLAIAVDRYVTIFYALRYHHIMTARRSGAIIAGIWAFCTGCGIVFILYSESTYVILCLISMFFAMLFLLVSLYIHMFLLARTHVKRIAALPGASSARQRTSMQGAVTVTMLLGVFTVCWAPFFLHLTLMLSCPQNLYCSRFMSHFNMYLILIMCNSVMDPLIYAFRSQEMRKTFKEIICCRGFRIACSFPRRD
readoutKind: Ki
Number first, unit second: that is the form wanted.

Need Ki, item OCCN1CCN(CCCN2c3ccccc3Sc3ccc(C(F)(F)F)cc32)CC1 8.93 µM

###

assay: DRUGMATRIX: Phosphodiesterase PDE3 enzyme inhibition (substrate: [3H]cAMP + cAMP); format: tissue-based, Homo sapiens; details: platelet; Not Active = under 50% inhibition at 10 µM
readoutKind: Ki

Worked cases, Ki given:
{"compound": "C/C=C\\c1ccc(O)c(OC)c1 [ISOEUGENOL]", "Ki": "Not Active"}
{"compound": "OCCO [ETHYLENE GLYCOL]", "Ki": "Not Active"}
{"compound": "CC[C@H](C)C(=O)O[C@H]1C[C@H](O)C=C2C=C[C@H](C)[C@H](CC[C@@H](O)C[C@@H](O)CC(=O)O)[C@H]21 [PRAVASTATIN]", "Ki": "Not Active"}
{"compound": "Cc1cccc(Nc2ccccc2C(=O)O)c1C [MEFENAMIC ACID]", "Ki": "Not Active"}
{"compound": "C[C@]12C/C(=C/O)C(=O)C[C@@H]1CC[C@@H]1[C@@H]2CC[C@@]2(C)[C@H]1CC[C@]2(C)O [OXYMETHOLONE]", "Ki": "Not Active"}
{"compound": "O=C(/C=C/c1ccc(O)c(O)c1)OCCc1ccccc1 [CAFFEIC ACID PHENETHYL ESTER]", "Ki": "Not Active"}
{"compound": "CC(CCc1ccc(O)cc1)NCCc1ccc(O)c(O)c1 (configuration not stated) [DOBUTAMINE]", "Ki": "Not Active"}
{"compound": "CO[C@H]1[C@@H](O)[C@H](N)[C@@H](O[C@H]2O[C@H]([C@H](C)N)CC[C@H]2N)[C@H](O)[C@@H]1N(C)C(=O)CN [ASTROMICIN]", "Ki": "Not Active"}

Need Ki, item CC(=O)O[C@H]1C[C@@H]2CC[C@@H]3[C@H](CC[C@@]4(C)[C@H]3C[C@H]([N+]3(C)CCCCC3)[C@@H]4OC(C)=O)[C@@]2(C)C[C@@H]1N1CCCCC1.[Br-] [VECURONIUM BROMIDE] Not Active

Origin of the recorded values: ChEMBL document CHEMBL1909046
